Data provenance is patent US20160264649A1.

Molecular target: HIV-1 Env of isolate 92UG024 (subtype D) (HIV-1)
Experiment: cell-based or functional assay
measured_property: IC50 (neutralization) (µg/mL)
// units = µg/mL; emit number, no label

Query :: Report IC50 (neutralization) for PGT-135 (antibody, V domains shown) VH: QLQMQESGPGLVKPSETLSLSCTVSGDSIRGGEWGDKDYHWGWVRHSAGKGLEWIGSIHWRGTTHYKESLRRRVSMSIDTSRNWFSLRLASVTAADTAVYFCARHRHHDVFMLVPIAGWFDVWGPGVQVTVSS VL: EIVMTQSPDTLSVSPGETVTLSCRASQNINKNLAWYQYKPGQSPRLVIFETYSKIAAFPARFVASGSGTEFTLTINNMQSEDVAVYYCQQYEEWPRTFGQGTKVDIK please.
Result :: 0.01
